List of nuclei count values.
Assay Name: endothelial E-selectin expression blockers – imaging, HUVEC, immunofluorescence, MLSMR starter and 10KST1 sets, primary screen (AID 487);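 note: 100% = median nuclei count of all wells on the same plate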
Assay Conditions: HUVEC TNFalpha-induced E-selectin immunofluorescence imaging, at 2 µM; measured here: cell number, toxicity
Report the value in % with no unit label.

{"columns": ["Compound", "Reported Result"],
 "data": [
  ["Cc1cc(=O)[nH]c2c1cnn2Cc1ccccc1", 104],
  ["CCOC(=O)C(C)On1c(SC(C)C(=O)OCC)nc2ccccc2c1=O (stereo unspecified)", 107],
  ["CSc1cccc(NC(=O)C2CCN(S(C)(=O)=O)CC2)c1", 120],
  ["Cc1ccc(NC(=O)C2CCCN2C(=O)Oc2ccccc2)cc1 (stereo unspecified)", 79.2],
  ["CCN(CC)S(=O)(=O)c1ccc2oc(C(=O)O)c(C)c2c1", 104]
]}

Q: Entry `c1ccc2c(c1)nc(CN1CCOCC1)n1c3ccccc3nc21` : reported nuclei count = ?
Result: 174

---

Assay Name: inhibitors of TNFa-induced NFkB p65 translocation, primary screen, imaging, HUVEC, MLSMR starter and 10KST1 sets (AID 438);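 note: compound added about 3h40 before a 20 min TNFalpha stimulation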
Assay Conditions: HUVEC TNFa-induced p65 nuclear translocation; measured here: nuclei count (cytotoxicity indicator), at 2.08 µM
Lab note: compare cell count against 500. Equal or greater, write True. Smaller, write False.

Look over these answered cases.
{"columns": ["Molecule", "Discrete Label"],
 "data": [
  ["COc1ccc(-c2noc(CCC(=O)NCCCN3CCC(Cc4ccccc4)CC3)n2)cc1", "False"],
  ["CCC(C)NC(=O)C1CCCN(S(=O)(=O)c2ccc(-n3cnnn3)cc2)C1 (stereo not given)", "True"],
  ["CC1(C)Cc2noc(N)c2C(C)(C)N1O", "True"]
]}

Q: Determine whether this molecule has cell count no lower than 500: `C=CCNC(=O)CSc1ccc(Cl)cc1`
Result: False

Q: Determine whether this molecule has cell count no lower than 500: `CCN(CC)CC(=O)Nc1ccc(-c2nc3cc(NC(=O)CN(CC)CC)ccc3o2)cc1`
Result: True

Q: Determine whether this molecule has cell count no lower than 500: `COc1cc(NC(=O)c2ccc(COCC(F)(F)F)o2)cc(OC)c1OC`
Result: True

Q: Determine whether this molecule has cell count no lower than 500: `Oc1cccc2ccc(Nc3ccccn3)nc12`
Result: True

Q: Determine whether this molecule has cell count no lower than 500: `CCn1c(=O)cc(SCC(=O)Nc2cccnc2)c2ccccc21`
Result: False

Q: Determine whether this molecule has cell count no lower than 500: `CC(C)OC(=O)CSc1nnnn1-c1ccc2c(c1)OCCO2`
Result: False

Q: Determine whether this molecule has cell count no lower than 500: `COc1cccc2cc(C(=O)n3ccc(C)n3)c(=O)oc12`
Result: False

Q: Determine whether this molecule has cell count no lower than 500: `COC(=O)c1sc(NC(=O)COc2ccccc2OC)nc1C`
Result: False

Q: Determine whether this molecule has cell count no lower than 500: `Cc1[nH]n2c(=O)cc(Cc3ccccc3)nc2c1C#N`
Result: True

Q: Determine whether this molecule has cell count no lower than 500: `O=c1[nH]c2ccc(S(=O)(=O)N3CCN(C4CCCCC4)CC3)cc2[nH]c1=O`
Result: False

Q: Determine whether this molecule has cell count no lower than 500: COc1ccc(N2C(=O)C3CCCN3C2c2ccc(F)cc2)cc1Cl (stereo not given)
Result: False

Q: Determine whether this molecule has cell count no lower than 500: `COc1ccccc1C(=O)n1nc(-c2ccccc2)nc1N`
Result: False

Q: Determine whether this molecule has cell count no lower than 500: COc1ccccc1NC(=O)C1=C(C)Nc2ncnn2C1c1ccc(C)o1 (stereo not given)
Result: False

Q: Determine whether this molecule has cell count no lower than 500: `O=C(CSc1nc2[nH]ncc2c(=O)n1-c1ccccc1Br)NCc1ccco1`
Result: True

Q: Determine whether this molecule has cell count no lower than 500: `CCCn1c(SCC(=O)Nc2nnc(-c3ccccc3)s2)nnc1-c1ccccn1`
Result: True

---

Assay Name: TLR3 IRF3 reporter activation blockers – cell-based, poly I:C stimulus, luciferase, 10K MLSCN set, primary screen (AID 602277)
Assay Conditions: HEK293-TLR3 RL24 IRF3 luciferase reporter, at 10 µM, stronger effect = higher value
Measurement Label: inhibition (%)
Report the value in % with no unit label.

{"columns": ["Molecule", "inhibition [%]"],
 "data": [
  ["COc1ccc2oc(C)c(C(=O)Cn3ccnc3)c2c1", -28.5],
  ["Cn1c(=O)oc2cc(S(=O)(=O)NCCC(=O)N3CCc4ccccc4C3)ccc21", 18.7]
]}

Q: Entry `Cc1ccc(OC(=O)CCc2c(C)nc3ncnn3c2C)cc1` : reported inhibition = ?
Result: 8.51

Q: Entry `FC(F)(F)c1cc(-c2ccco2)nc(-n2nnc3ccccc32)n1` : reported inhibition = ?
Result: 22.4

Q: Entry `COc1ccc(C(F)(F)F)cc1NC(=O)c1nc2nc(C)cc(C(F)F)n2n1` : reported inhibition = ?
Result: 10.9

Q: Entry `Cn1nnnc1SCC(=O)NCc1ccco1` : reported inhibition = ?
Result: -15.1

Q: Entry `COc1ccccc1N1CCN(C(=O)CSc2nc(-c3ccccc3)cc(=O)[nH]2)CC1` : reported inhibition = ?
Result: 6.29

Q: Entry `CC(C)(C)NC(=O)Nc1ccccc1C(N)=O` : reported inhibition = ?
Result: -20.8

---

List of inhibition values.
Assay Target: Dual specificity protein phosphatase 6 (Homo sapiens)
Assay Name: Primary imaging screen for DUSP6 inhibitors that restore phospho-Erk in transfected HeLa cells, chemical complementation (AID 609);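 note: phospho-Erk level distribution per well compared with pooled transfected vehicle control wells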
Assay Conditions: HeLa MKP-3 transfected, phospho-Erk imaging KS statistic; at 10 µM; stronger effect = higher value; cells stimulated with TPA for 15 min
Report the value in % with no unit label.

Below, 5 compounds whose answers are already recorded.
{"columns": ["Compound", "inhibition, %"],
 "data": [
  ["Cc1cnc(C(=O)NCCc2ccc(S(=O)(=O)NC(=O)NC3CCCCC3)cc2)cn1", 12.4],
  ["CC(=O)OCC(=O)[C@@]1(O)CC[C@H]2[C@@H]3CCC4=CC(=O)C=C[C@]4(C)[C@H]3[C@@H](O)C[C@@]21C", 9.37],
  ["Cc1ccc(N2CN=c3s/c(=C\\c4cccnc4)c(=O)n3C2)cc1", 1.75],
  ["O=C(O)c1ccc(COCC(F)(F)C(F)F)o1", 5.26],
  ["COc1ccc(C(=O)C2CCCCC2=O)cc1 (stereo unspecified)", -2.07]
]}

Q: Entry `COc1ccc(-c2coc3cc(O)cc(O)c3c2=O)cc1` : reported inhibition = ?
Result: 10.2

Q: Entry `Fc1ccc(C(c2ccc(F)cc2)N2CCN(C/C=C/c3ccccc3)CC2)cc1` : reported inhibition = ?
Result: 23.4

Q: Entry `CC(C)CCOc1ccc(Cl)cc1CN1CCOCC1` : reported inhibition = ?
Result: -3.98

Q: Entry `NC(N)=Nc1nc(CSCC/C(N)=N/S(N)(=O)=O)cs1` : reported inhibition = ?
Result: 16.8

Q: Entry `CN(C)CCOC(c1ccccc1)c1ccccc1` : reported inhibition = ?
Result: 5.42

Q: Entry `O=c1c(O)c(-c2ccc(O)cc2O)oc2cc(O)cc(O)c12` : reported inhibition = ?
Result: -0.493

---

Assay Target: Muscarinic acetylcholine receptor M4 (Homo sapiens)
Assay Name: M4-linked GIRK flux change, two-sided – cell-based, HEK293 M4/GIRK, thallium flux, BTC-AM, M4 allosteric agonist project, primary screen (AID 625);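 note: thallium influx through GIRK channels coupled to M4 in HEK293 cells with BTC-AM dye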
Assay Conditions: at 10 µM, actives lie on both sides
List of fluorescence slope values.
Please give only the number in your answer, with no unit.

Below, 4 compounds whose answers are already recorded.
{"columns": ["Compound", "Reported Result"],
 "data": [
  ["N#CCCCN1C(=O)C(O)(CC(=O)c2ccc3c(c2)OCCO3)c2ccccc21 (centres undefined)", 0.0053],
  ["CCCn1c(NC(=O)C2COc3ccccc3O2)nc2ccccc21 (centres undefined)", 0.00578],
  ["CC1(C)CC(=O)C(C=NCCc2ccc(S(N)(=O)=O)cc2)=C(O)C1", 0.00589],
  ["O=C(Cc1ccc(Br)cc1)N1CCCCCC1", 0.00369]
]}

Q: Entry `CC(C)Cn1c(=O)c(C(=O)NCc2ccccn2)c(O)c2ccccc21` : reported fluorescence slope = ?
Result: 0.00508

Q: Entry Cn1c(=O)cc(SCC(=O)NCC2CCCO2)c2ccc(Cl)cc21 (centres undefined) : reported fluorescence slope = ?
Result: 0.00522

Q: Entry `O=C1CNCc2[nH]c3ccccc3c2N1c1ccccc1` : reported fluorescence slope = ?
Result: 0.00541

Q: Entry `CCSc1nnc(NC(=O)c2ccc(C)o2)s1` : reported fluorescence slope = ?
Result: 0.00557

Q: Entry `COc1ccccc1C(=O)Nc1ccc(N2CCN(S(C)(=O)=O)CC2)cc1` : reported fluorescence slope = ?
Result: 0.00706

Q: Entry `CCN(CC)C(=O)Oc1ccccc1NC(C)=O` : reported fluorescence slope = ?
Result: 0.00764

Q: Entry `Cc1ccnc(NC(=O)CCC(=O)N(CC(=O)NC2CCCCC2)c2cccc(C)c2C)c1` : reported fluorescence slope = ?
Result: 0.00484

Q: Entry O=C(NC1CC2CCC1C2)C1COc2ccccc2O1 (centres undefined) : reported fluorescence slope = ?
Result: 0.00453

Q: Entry `Clc1ccc2nc(N3CCNCC3)nc(-c3ccccc3)c2c1` : reported fluorescence slope = ?
Result: 0.00627

Q: Entry COC(=O)C1=C(C)Nc2nnnn2C1c1ccc(Cl)cc1Cl (centres undefined) : reported fluorescence slope = ?
Result: 0.0056

Q: Entry `CC(C)NC(=O)CSc1nnc(-c2ccc(C(C)(C)C)cc2)n1C` : reported fluorescence slope = ?
Result: 0.00698

Q: Entry `NC(=O)c1nsnc1-c1ccccc1O` : reported fluorescence slope = ?
Result: 0.00622

Q: Entry `Cc1oc(-c2ccccc2)cc1C(N)=O` : reported fluorescence slope = ?
Result: 0.0055

Q: Entry COc1ccc(CN2CC(C(=O)NCc3ccccn3)CC2=O)cc1 (centres undefined) : reported fluorescence slope = ?
Result: 0.00691

Q: Entry `CN(C)S(=O)(=O)c1ccc(C(=O)Nc2ccccc2C(=O)O)cc1` : reported fluorescence slope = ?
Result: 0.00545

Q: Entry `Cc1cc(C)c(-c2cc(C(=O)Nc3c(C)n(C)n(-c4ccccc4)c3=O)[nH]n2)c(O)c1` : reported fluorescence slope = ?
Result: 0.00571

// data source = PubChem BioAssay
